ASSAY_PROTOCOL: Selectivity index, ratio of CC50 for MDCK cells to IC50 for Influenza A virus (A/WSN/33(H1N1)) infected in MDCK cells
Format: toxicity, cell-based
EXPERIMENTAL_PARAMETERS: dog, read-out: Ratio CC50/IC50
PROPERTY: selectivity ratio

COC(=O)C1=C[C@H](NC(=O)[C@]23CCC(C)(C)C[C@H]2C2=CC[C@@H]4[C@@]5(C)CC[C@H](O)C(C)(C)[C@@H]5CC[C@@]4(C)[C@]2(C)C[C@H]3O)[C@@H](NC(C)=O)[C@H]([C@H](O)[C@H](O)CO)O1; > 4.9
COc1cc(/C=C/C(=O)CC(=O)/C=C/c2ccc(O)c(OC)c2)ccc1O; 7.2

With those in mind, consider the next molecule.
Form field: reported selectivity ratio of COC(=O)C1=C[C@H](NC(=O)[C@]23CCC(C)(C)C[C@H]2C2=CC[C@@H]4[C@@]5(C)CC[C@H](O)C(C)(C)[C@@H]5CC[C@@]4(C)[C@]2(C)C[C@H]3O)[C@@H](NC(C)=O)[C@H]([C@H](OC(C)=O)[C@@H](COC(C)=O)OC(C)=O)O1
> 32.3

====

System: MDCK
ASSAY_PROTOCOL: Cytotoxicity against MDCK cells assessed as reduction in cell viability at 100 uM after 40 hrs by CellTiter-Glo assay
Type: cell-based, Canis lupus familiaris
EXPERIMENTAL_PARAMETERS: dog
PROPERTY: Activity

C=C(C)[C@@H]1CC[C@]2(C(=O)NCc3cn([C@H]4C=C(C(=O)OC)O[C@@H]([C@H](OC(C)=O)[C@@H](COC(C)=O)OC(C)=O)[C@@H]4NC(C)=O)nn3)CC[C@]3(C)[C@H](CC[C@@H]4[C@@]5(C)CC[C@H](O)C(C)(C)[C@@H]5CC[C@]43C)[C@@H]12; Toxic
COC(=O)C1=C[C@H](n2cc(CNC(=O)[C@]34CCC(C)(C)C[C@H]3C3=CC[C@@H]5[C@@]6(C)CC[C@H](O)C(C)(C)[C@@H]6CC[C@@]5(C)[C@]3(C)CC4)nn2)[C@@H](NC(C)=O)[C@H]([C@H](OC(C)=O)[C@@H](COC(C)=O)OC(C)=O)O1; Toxic

====

ASSAY_PROTOCOL: Cytotoxicity against MDCK cells assessed as reduction in cell viability after 40 hrs by CellTiter-Glo assay
Format: cell-based, Canis lupus familiaris
EXPERIMENTAL_PARAMETERS: dog
PROPERTY: CC50 at 40 h

Some solved entries appear below for comparison.
COC(=O)C1=C[C@H](n2cc(CNC(=O)[C@]34CCC(C)(C)C[C@H]3C3=CC[C@@H]5[C@@]6(C)CC[C@H](O)C(C)(C)[C@@H]6CC[C@@]5(C)[C@]3(C)C[C@H]4O)nn2)[C@@H](NC(C)=O)[C@H]([C@H](O)[C@H](O)CO)O1; > 200 µM
COC(=O)C1=C[C@H](NC(=O)[C@]23CCC(C)(C)C[C@H]2C2=CC[C@@H]4[C@@]5(C)CC[C@H](O)C(C)(C)[C@@H]5CC[C@@]4(C)[C@]2(C)C[C@H]3O)[C@@H](NC(C)=O)[C@H]([C@H](O)[C@H](O)CO)O1; > 200 µM
COC(=O)C1=C[C@H](n2cc(CNC(=O)[C@]34CCC(C)(C)C[C@H]3C3=CC[C@@H]5[C@@]6(C)CC[C@H](O)C(C)(C)[C@@H]6CC[C@@]5(C)[C@]3(C)CC4)nn2)[C@@H](NC(C)=O)[C@H]([C@H](O)[C@H](O)CO)O1; > 200 µM
COC(=O)C1=C[C@H](NC(=O)[C@]23CC[C@@H](C)[C@H](C)[C@H]2C2=CC[C@@H]4[C@@]5(C)CC[C@H](O)C(C)(C)[C@@H]5CC[C@@]4(C)[C@]2(C)CC3)[C@H](NC(C)=O)[C@H]([C@H](OC(C)=O)[C@@H](COC(C)=O)OC(C)=O)O1; 136 µM
COC(=O)C1=C[C@H](NC(=O)[C@]23CCC(C)(C)C[C@H]2C2=CC[C@@H]4[C@@]5(C)CC[C@H](O)C(C)(C)[C@@H]5CC[C@@]4(C)[C@]2(C)CC3)[C@@H](NC(C)=O)[C@H]([C@H](OC(C)=O)[C@@H](COC(C)=O)OC(C)=O)O1; 188 µM

Form field: reported CC50 at 40 h of COC(=O)C1=C[C@H](NC(=O)[C@]23CCC(C)(C)C[C@H]2C2=CC[C@@H]4[C@@]5(C)CC[C@H](O)C(C)(C)[C@@H]5CC[C@@]4(C)[C@]2(C)C[C@H]3O)[C@@H](NC(C)=O)[C@H]([C@H](OC(C)=O)[C@@H](COC(C)=O)OC(C)=O)O1
> 200 µM

====

ASSAY_PROTOCOL: Selectivity index, ratio of CC50 for MDCK cells to IC50 for Influenza A virus (A/WSN/33(H1N1)) infected in MDCK cells
Format: toxicity, cell-based
EXPERIMENTAL_PARAMETERS: dog, read-out: Ratio CC50/IC50
PROPERTY: selectivity ratio
Numbers only.

Form field: reported selectivity ratio of COC(=O)C1=C[C@H](NC(=O)[C@]23CCC(C)(C)C[C@H]2C2=CC[C@@H]4[C@@]5(C)CC[C@H](O)C(C)(C)[C@@H]5CC[C@@]4(C)[C@]2(C)CC3)[C@@H](NC(C)=O)[C@H]([C@H](OC(C)=O)[C@@H](COC(C)=O)OC(C)=O)O1
22.7
